Test target: T1, biotinylated synthetic D-Abl SH2 domain (human, UniProt P00519-2 141-240, all residues in D-configuration; biotin (position not given))
T1 chain: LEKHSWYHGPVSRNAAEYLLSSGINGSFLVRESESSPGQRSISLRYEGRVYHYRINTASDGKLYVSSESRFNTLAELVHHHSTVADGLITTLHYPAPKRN
Assay summary: FACS; yeast surface display
Measured pKd values are reported for all entries that follow.
// pKd here means minus log10 of the molar concentration (mol/L)

Binder	Value
monobody DAM26 displayed on yeast (designed binder) MAASSVPTKLEVVAATPTSLLISWDAPAVTVDHYVITYGETGGNSPVQEFTVPGSKSTATISGLKPGVDYTITVYAYEFYSGEYSHFSPISINYRT	7.49

pKd in this record for monobody DAM27 displayed on yeast (designed binder) ASSVPTKLEVVAATPTSLLISWDAPAVTVDHYVITYGETGGGGGSQEFEVPGSKSTATISGLKPGVDYTITVYAYEFYSGEYSHFSPISINYRT : 7.62

pKd in this record for monobody DAM21 displayed on yeast (designed binder) ASSVPTKLEVVAATPTSLLISWDAPAVTVDHYVITYGETGGNSPVQEFTVPGSKSTATISGLKPGVDYTITVYASDYYDGEISWYSPISINYRT : 7.70

pKd in this record for monobody DAM28 displayed on yeast (designed binder) MAASSVPTKLEVVAATPTSLLISWDAPAVTVDHYVITYGETGGNSPVQEFTVPGSKSTATISGLKPGVDYTITVYAYEYWEYEYSSYSPISINYRT : 7.17
